System: HepG2
Test: cytotoxicity call (relative viability < 0.9)
Details: 10 µM
Among all 39,000 compounds or so, about 3,300 (8.5%) were called active. The sample as a whole holds a higher share of actives than the screen did.
Classes used: true (active), false (inactive)

1. C[C@H]1CN([C@@H](C)CO)C(=O)Cc2cc(NC(=O)Nc3ccc(C(F)(F)F)cc3)ccc2O[C@@H]1CN(C)Cc1ccc(-c2ccccc2)cc1	false
2. CC(C)=CCc1c(O)cc2oc(C)cc(=O)c2c1O	false
3. C[C@H](CO)N1C[C@H](C)[C@H](CN(C)Cc2ccc(C(=O)O)cc2)OCCCC[C@H](C)Oc2ccc(NC(=O)NC3CCCCC3)cc2C1=O	false
4. C[C@H]1CN([C@@H](C)CO)C(=O)CCCn2nncc2CO[C@H]1CN(C)Cc1ccc2c(c1)OCCN2C	false
5. O=C(Cc1cccs1)N1c2ccccc2Sc2ccccc21	true
6. COc1cc(O)c2c(=O)cc(C)oc2c1CC=C(C)C	false
7. C[N+](C)(C)CCCCCCNC(=O)[C@@H]1C[C@@H]2C(=O)N[C@@H](CCCC[N+](C)(C)C)C(=O)N2[C@@H]1c1ccc(O)cc1	false
8. O=C(N[C@H]1CC[C@H](CCNS(=O)(=O)c2ccccc2)O[C@@H]1CO)c1cnccn1	false
9. C[C@H]1CN([C@@H](C)CO)C(=O)Cc2cc(NC(=O)Nc3ccc(C(F)(F)F)cc3)ccc2O[C@H]1CN(C)Cc1ccc(-c2ccccc2)cc1	true
10. O[C@@H]1[C@@H](O)[C@H](OC/C=C/c2ccccc2)O[C@H](CO[C@@H]2OC[C@@H](O)[C@@H](O)[C@@H]2O)[C@H]1O	false
11. CN1[C@@H]2c3ccc(-c4ccccc4)c(=O)n3C[C@H]1[C@H](CO)[C@H]2C(=O)NCCCN1CCOCC1	false
12. COc1ccc(CN(C)C[C@H]2OCCCC[C@@H](C)Oc3ccc(NC(=O)Nc4cccc5ccccc45)cc3C(=O)N([C@@H](C)CO)C[C@H]2C)cc1	true
13. N[C@@H](Cn1ccc(=O)n(Cc2ccccc2C(=O)O)c1=O)C(=O)O	false
14. COc1ccc(NC(=O)Nc2ccc3c(c2)C(=O)N([C@H](C)CO)C[C@@H](C)[C@H](CN(C)Cc2ccc(Cl)c(Cl)c2)OCCCC[C@@H](C)O3)cc1	true
15. O=C(C[C@H]1C=C[C@H](NC(=O)c2ccc3c(c2)OCO3)[C@H](CO)O1)NCc1ccc(Oc2ccccc2)cc1	false
16. COc1c(O)cc2oc3cc(O)c(CC=C(C)C)c(O)c3c(=O)c2c1CC=C(C)C [alpha-MANGOSTIN ]	true
17. O[C@H]1CCN(c2nccs2)C1	false
18. C[C@@H]1CN([C@@H](C)CO)C(=O)c2cc(NC(=O)NC3CCCCC3)ccc2O[C@@H](C)CCCCO[C@@H]1CN(C)C(=O)Nc1ccccc1	false
19. Nc1nccs1	false
20. C[C@@H]1CCCCO[C@H](CN(C)C(=O)Nc2ccc(C(F)(F)F)cc2)[C@@H](C)CN([C@H](C)CO)C(=O)c2cc(NS(=O)(=O)c3cn(C)cn3)ccc2O1	false
21. O=C1CCC(=O)N1c1nccs1	true
22. C[C@@H]1CN([C@@H](C)CO)S(=O)(=O)c2ccc(C#CC3(O)CCCC3)cc2O[C@H]1CN(C)C(=O)Cc1ccncc1	false
23. C[C@H](CO)N1C[C@H](C)[C@H](CN(C)Cc2ccc(-c3ccccc3)cc2)Oc2ccc(NC(=O)Nc3ccc(C(F)(F)F)cc3)cc2CC1=O	true
24. C[C@@H]1CN([C@H](C)CO)C(=O)Cc2cc(NC(=O)Nc3ccc(C(F)(F)F)cc3)ccc2O[C@@H]1CN(C)Cc1ccc(-c2ccccc2)cc1	true
25. COc1ccc(NC(=O)Nc2ccc3c(c2)C(=O)N([C@@H](C)CO)C[C@@H](C)[C@@H](CN(C)Cc2ccc(Cl)c(Cl)c2)OCCCC[C@H](C)O3)cc1	false
26. C[C@H]1CN([C@@H](C)CO)C(=O)Cc2cc(NC(=O)CCC(F)(F)F)ccc2O[C@@H]1CN(C)Cc1ccc(Cl)c(Cl)c1	false
27. C[C@H]1CCCCO[C@@H](CN(C)S(=O)(=O)c2ccc(Cl)cc2)[C@@H](C)CN([C@@H](C)CO)C(=O)c2cc(NS(=O)(=O)c3ccccc3)ccc2O1	false
28. Cc1ccc(S(=O)(=O)n2cc([C@H]3CC(=O)N(C(=O)OCc4ccccc4)[C@H]3C(=O)Nc3cccc4cccnc34)c3ccccc32)cc1	false

----------
Test system: HepG2
Test: cytotoxicity call (relative viability < 0.9)
Conditions: 10 µM
Screen size: about 39,000 compounds; about 3,300 (8.5%) were called active. What follows is part of a selection rich in actives, with near analogues and random picks from the rest.
Classes used: active, inactive

1) C=C(C)C1CCC2(CO)CCC3(C)C(CCC4C5(C)CCC(O)C(C)(C)C5CCC43C)C12 (configuration not stated)	active
2) Cc1ccc(S(=O)(=O)Nc2cc([C@@H](C(=O)OC(C)C)C(=O)C(F)(F)F)c(O)c3ccccc23)c(C)c1	inactive
3) CC1CCC2(OC1)OC1CC3C4CCC5CC(O)CCC5(C)C4CCC3(C)C1C2C (configuration not stated)	inactive
4) C[C@H](CO)N1C[C@H](C)[C@@H](CN(C)Cc2ccc(Cl)c(Cl)c2)Oc2ccc(NS(=O)(=O)c3ccccc3)cc2C1=O	inactive
5) C[C@@H]1CC[C@@]2(OC1)O[C@H]1C[C@H]3[C@H]4C[C@@H](O)[C@H]5C[C@@H](O[C@@H]6O[C@H](CO)[C@H](O[C@@H]7O[C@H](CO)[C@@H](O)[C@H](O[C@@H]8OC[C@@H](O)[C@H](O)[C@H]8O)[C@H]7O[C@@H]7O[C@H](CO)[C@@H](O)[C@H](O)[C@H]7O)[C@H](O)[C@H]6O)[C@H](O)C[C@]5(C)[C@@H]4CC[C@]3(C)[C@H]1[C@@H]2C	active
6) CC(C)(O)C1CCC(C)(C2C(O)CC3(C)C4CC(OC5OC(CO)C(O)C(O)C5O)C5C(C)(C)C(OC6OCC(O)C(O)C6O)CCC56CC46CCC23C)O1 (configuration not stated)	inactive
7) C[C@@H]1CN([C@H](C)CO)C(=O)c2cc(NS(=O)(=O)c3ccccc3)ccc2O[C@@H]1CN(C)Cc1ccc(Cl)c(Cl)c1	active
8) COc1ccc(S(=O)(=O)N(C)C[C@@H]2OCc3cnnn3CCCC(=O)N([C@H](C)CO)C[C@@H]2C)cc1	inactive
9) C[C@@H]1CN([C@@H](C)CO)C(=O)c2c(c3ccccc3n2C)-c2ccccc2CO[C@H]1CN(C)Cc1ccc(C(F)(F)F)cc1	inactive
10) C[C@@H]1CN([C@H](C)CO)C(=O)c2cc(NS(=O)(=O)c3ccc(F)cc3)ccc2O[C@@H]1CN(C)Cc1ccncc1	inactive
11) C[C@H]1CN([C@@H](C)CO)C(=O)c2cccc(NC(=O)c3nc4ccccc4s3)c2O[C@H]1CN(C)Cc1ccc(C(F)(F)F)cc1	inactive
12) CC(C)C(=O)N1CC[C@H]2CN(CC(=O)N(C)C)S(=O)(=O)[C@@H]2CC1	inactive
13) C=C(C)C1CCC2(C(=O)O)CCC3(C)C(CCC4C5(C)CCC(O)C(C)(C)C5CCC43C)C12 (configuration not stated)	inactive
14) CNC(=O)C[C@@H]1CC[C@H]2[C@@H](COC[C@@H](O)CN2C(=O)c2ccccn2)O1	inactive
15) COc1ccc(cc1)NC(=O)N1CC[C@]2(CC1)CN([C@@H](CO)c1[nH]c3cc(ccc3c12)OC)C(=O)CN1CCOCC1	inactive
16) C[C@@H]1CN([C@@H](C)CO)C(=O)c2cc(NS(=O)(=O)c3ccccc3)ccc2O[C@H]1CN(C)Cc1ccc(Cl)c(Cl)c1	inactive
17) CNC[C@@H]1Oc2ccc(NC(=O)Cn3cnnn3)cc2C(=O)N([C@@H](C)CO)C[C@H]1C	inactive
18) OC[C@H]1O[C@@H](n2cnc3c(N[C@@H]4CCOC4)ncnc32)[C@H](O)[C@@H]1O	inactive
19) C[C@@H]1CN([C@@H](C)CO)C(=O)c2cc(NS(=O)(=O)c3ccc(F)cc3)ccc2O[C@@H]1CN(C)Cc1ccc(Oc2ccccc2)cc1	active
20) COc1ccc2c3c(n(c2c1)C)[C@@H](CO)N(C[C@]13CN(C1)S(=O)(=O)c1ccc(cc1)C)S(=O)(=O)c1ccc(cc1)C	inactive
21) Cc1ccc(S(=O)(=O)N(C)C[C@@H]2Oc3ncc(Br)cc3C(=O)N([C@H](C)CO)C[C@@H]2C)cc1	inactive
22) CC(C)(O)[C@H]1CC[C@@](C)([C@H]2[C@@H](O)C[C@@]3(C)[C@@H]4C[C@H](O[C@@H]5O[C@H](CO)[C@@H](O)[C@H](O)[C@H]5O)[C@H]5C(C)(C)[C@@H](O[C@@H]6OC[C@@H](O)[C@H](O)[C@H]6O)CC[C@@]56C[C@@]46CC[C@]23C)O1	inactive
